- target or system: UniProtKB P14416
- Sequence (P14416 whole entry): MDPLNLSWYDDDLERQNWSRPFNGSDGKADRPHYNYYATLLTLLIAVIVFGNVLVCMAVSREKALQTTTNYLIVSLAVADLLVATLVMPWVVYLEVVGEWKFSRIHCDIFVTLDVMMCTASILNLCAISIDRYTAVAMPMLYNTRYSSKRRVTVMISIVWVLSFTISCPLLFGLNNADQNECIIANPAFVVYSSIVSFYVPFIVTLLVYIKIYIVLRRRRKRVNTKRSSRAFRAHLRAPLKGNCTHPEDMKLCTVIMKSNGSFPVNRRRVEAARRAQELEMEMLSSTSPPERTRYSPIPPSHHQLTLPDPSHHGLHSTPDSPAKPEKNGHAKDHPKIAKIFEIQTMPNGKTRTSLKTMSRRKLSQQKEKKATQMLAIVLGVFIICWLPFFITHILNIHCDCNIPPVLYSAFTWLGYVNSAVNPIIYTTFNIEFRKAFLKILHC
- experiment: Displacement of [3H]-YM-09151-2 from dopamine D2 receptor (unknown origin) in sheep brain striatum membranes after 2 hrs by scintillation counting
- Assay type: cell membranes
- applied conditions: Ovis aries (sheep)
Note to self: use Yes only for K readings below 0.8 nM; a reading exactly at 0.8 nM still gets No.

Query block: Hi there! Is K for `COC(=O)CN(CC(=O)NCCCOCCOCCOCCCNC(=O)CCC(=O)Nc1ccc(CCN2CN(c3ccccc3)C3(CCN(CCCC(=O)c4ccc(F)cc4)CC3)C2=O)cc1)CC(=O)NCCCOCCOCCOCCCNC(=O)CCC(=O)Nc1ccc(CCN2CN(c3ccccc3)C3(CCN(CCCC(=O)c4ccc(F)cc4)CC3)C2=O)cc1` below 0.8 nM, do you know?
Result block: Yes

Query block: Hi there! Is K for `O=C(O)CCC(=O)Nc1ccc(CCN2CN(c3ccccc3)C3(CCN(CCCC(=O)c4ccc(F)cc4)CC3)C2=O)cc1` below 0.8 nM, do you know?
Result block: Yes

Query block: Hi there! Is K for `COC(=O)CN(CC(=O)NCCOCCOCCNC(C)=O)CC(=O)NCCOCCOCCNC(=O)CCC(=O)Nc1ccc(CCN2CN(c3ccccc3)C3(CCN(CCCC(=O)c4ccc(F)cc4)CC3)C2=O)cc1` below 0.8 nM, do you know?
Result block: Yes

Query block: Hi there! Is K for `COC(=O)CN(CC(=O)NCCCOCCOCCOCCCNC(C)=O)CC(=O)NCCCOCCOCCOCCCNC(=O)CCC(=O)Nc1ccc(CCN2CN(c3ccccc3)C3(CCN(CCCC(=O)c4ccc(F)cc4)CC3)C2=O)cc1` below 0.8 nM, do you know?
Result block: No

Query block: Hi there! Is K for `COC(=O)CN(CC(=O)NCCOCCOCCNC(=O)CCC(=O)Nc1ccc(CCN2CN(c3ccccc3)C3(CCN(CCCC(=O)c4ccc(F)cc4)CC3)C2=O)cc1)CC(=O)NCCOCCOCCNC(=O)CCC(=O)Nc1ccc(CCN2CN(c3ccccc3)C3(CCN(CCCC(=O)c4ccc(F)cc4)CC3)C2=O)cc1` below 0.8 nM, do you know?
Result block: Yes
